Test name: Plasma concentration versus time profile after a single oral gavage dose, LC-MS/MS
Format: in vivo, Hy-line brown hens
Condition notes: female, Hy-line brown, in vivo, po, 10 mg/kg
Measure: Tmax (h)
Give bare numbers, in h.

## Input Field request: Tmax | item: O=[N+]([O-])NC1=NCCN1Cc1ccc(Cl)nc1
## Output 4
